# RUN DESCRIPTION: qHTS for Inhibitors of human tyrosyl-DNA phosphodiesterase 1 (TDP1): qHTS in cells in absence of CPT; note: nearly all actives have a fitted effect of over 55% in size
# CONDITION LABEL: DT40 Tdp1-/- hTDP1 cells, no CPT, ATP luminescence, 48 h
Hit rate of the full screen: of about 420,000 compounds, about 64,000 (15%) were called active. Inconclusive results (about 27%) are left out. Calls come from the whole dose curve; as a rule, active = well fitted inhibition curve with a large enough effect; inconclusive = small, poorly fitted or top-dose-only effect; inactive = flat fitted curve, though single readings scatter. These entries were drawn from the full list.
Please state which outcome applies, choosing from yes = active, no = inactive

Q: Which outcome was assigned to CC1(C)CC(=O)C=C(NC2CC(C)(C)NC(C)(C)C2)C1 in this test?
Result: no

Q: Fill in: this test's call for O=C(Cn1ccc2cc(S(=O)(=O)N3CCCC3)ccc21)NCc1ccccc1 is ___
Result: yes

Q: Please share the test call associated with Cc1ccc(S(=O)(=O)CCC(=O)OCc2ccccc2)cc1 .
Result: no

Q: Dear all, I need the recorded test outcome for COc1ccc(C(=O)c2oc3ccccc3c2NC(=O)COc2cccc(C)c2)cc1 , thank you.
Result: no

Q: State the result this test recorded for O=C(/C=C/c1cccs1)NCc1cccnc1 .
Result: no

Q: Hello, I am checking results. What call was entered for O=C(CSc1nncs1)NC1CCCc2ccccc21 (stereo unspecified) ?
Result: no

Q: What call does the record list for Cc1nnc(SCC(=O)Nc2cccc(N)c2)n1-c1ccccc1 ?
Result: no

Q: Name the outcome recorded for CC(C)(C)NC(=O)C(c1ccncc1)N(C(=O)CNC(=O)c1ccco1)c1ccc2c(c1)OCO2 (stereo unspecified) in the assay.
Result: no

Q: What was the test verdict on CCN(C(=O)COC(=O)C1CCN(S(=O)(=O)c2ccc(C)c(C)c2)CC1)C1CCS(=O)(=O)C1 (stereo unspecified) ?
Result: no

Q: State the result this test recorded for O=C(COc1ccc(S(=O)(=O)N2CCCCC2)cc1)NCc1ccccn1 .
Result: no

Q: Look up the recorded call for CN(C(=O)Nc1ccc(Cl)cc1)n1cnc2ccccc2c1=O in this test.
Result: no

This collection of values is drawn from PubChem BioAssay AID686978.
